target-of-assay: Voltage-gated inwardly rectifying potassium channel KCNH2 (Homo sapiens) (UniProt Q12809)
Sequence (Q12809 whole entry, looked up): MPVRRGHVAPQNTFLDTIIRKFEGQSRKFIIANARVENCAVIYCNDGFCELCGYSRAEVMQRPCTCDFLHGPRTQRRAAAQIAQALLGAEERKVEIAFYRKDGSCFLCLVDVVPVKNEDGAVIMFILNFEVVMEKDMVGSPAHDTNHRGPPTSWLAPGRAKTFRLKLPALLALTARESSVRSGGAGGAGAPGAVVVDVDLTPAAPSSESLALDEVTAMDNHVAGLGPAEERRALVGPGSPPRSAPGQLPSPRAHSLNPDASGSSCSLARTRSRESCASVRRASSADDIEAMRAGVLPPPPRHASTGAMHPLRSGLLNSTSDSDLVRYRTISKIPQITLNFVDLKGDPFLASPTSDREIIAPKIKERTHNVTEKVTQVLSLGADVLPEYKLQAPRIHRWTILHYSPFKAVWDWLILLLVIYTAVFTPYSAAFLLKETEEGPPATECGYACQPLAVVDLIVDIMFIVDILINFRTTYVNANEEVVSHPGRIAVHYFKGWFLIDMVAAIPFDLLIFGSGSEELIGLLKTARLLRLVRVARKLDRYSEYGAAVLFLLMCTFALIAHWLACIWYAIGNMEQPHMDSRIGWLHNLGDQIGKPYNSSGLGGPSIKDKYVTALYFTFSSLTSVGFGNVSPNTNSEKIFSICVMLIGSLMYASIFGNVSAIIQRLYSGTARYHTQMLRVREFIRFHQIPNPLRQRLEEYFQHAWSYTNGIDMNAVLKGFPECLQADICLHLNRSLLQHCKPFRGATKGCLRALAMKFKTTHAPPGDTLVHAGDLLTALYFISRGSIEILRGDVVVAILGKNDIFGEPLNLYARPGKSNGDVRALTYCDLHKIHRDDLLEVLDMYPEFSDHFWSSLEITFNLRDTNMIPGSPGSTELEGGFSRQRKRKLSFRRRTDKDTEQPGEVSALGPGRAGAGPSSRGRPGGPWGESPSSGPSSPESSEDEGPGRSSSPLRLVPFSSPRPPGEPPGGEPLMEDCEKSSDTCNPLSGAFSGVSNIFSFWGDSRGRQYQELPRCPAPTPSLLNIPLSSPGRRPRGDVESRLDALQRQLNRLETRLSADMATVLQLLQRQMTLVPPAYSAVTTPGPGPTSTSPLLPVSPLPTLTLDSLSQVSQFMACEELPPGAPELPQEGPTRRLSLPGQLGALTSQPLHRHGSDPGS
experiment: Human Ether-a-go-go-Related Gene (hERG) channel small molecule antagonists: fluorescence cell-based qHTS assay (AID 1671200); also: nearly all actives have a fitted effect of over 50% in size
assay-setup: hERG-U2OS cells, FluxOR thallium flux fluorescence; series mostly up to 76.8 µM
Inconclusive results are not listed. Calls of active or inactive are those of the source. Calls follow the shape of the dose curve; as a rule, active = well fitted inhibition curve with a large enough effect in the repeat runs; inconclusive = weak or mixed curves; inactive = flat fitted curve, though single readings scatter.
// one of active, inactive, no free text

See these solved cases before continuing.
Outcome logged for ClCC(Cl)(Cl)Cl in this assay: inactive

What was the test verdict on CCOP(=O)(OCC)OP(=O)(OCC)OCC ? inactive

How was CCCCc1c(C)nc(NCC)[nH]c1=O classified in this test? inactive

Call for entry CNC(=O)N(C)c1nc2ccccc2s1 : inactive

State the result this test recorded for COC(=O)c1ccccc1S(=O)(=O)NC(=O)Nc1nc(C)cc(C)n1 . inactive

Next:
Recorded test outcome, item ClCCCN1CCN(c2cccc(Cl)c2)CC1 active

Hi, sorry to bother you, what did the test record for CCOC(=O)NC(=S)Nc1ccccc1NC(=S)NC(=O)OCC ? inactive

Write down the call the test reported for this molecule. Item: O=CNC(N1CCN(C(NC=O)C(Cl)(Cl)Cl)CC1)C(Cl)(Cl)Cl (stereo not drawn) inactive

Given C[C@]12CC[C@H]3[C@@H](CC=C4C[C@@H](O)CC[C@@]43C)[C@@H]1CC[C@@H]2O , state the outcome it received in this test. inactive

Could you please tell me the result logged for COP(N)(=S)Oc1ccccc1C(=O)OC(C)C (stereo not drawn) in this assay? inactive

For this molecule, state the assay outcome: O=S(=O)(O)C(F)(F)C(F)(F)C(F)(F)C(F)(F)C(F)(F)C(F)(F)F inactive

Tell me the assay call for COC(=O)C1=CCCN(C)C1 please. inactive

Check the results log: what was the call for O=C(N[C@H]1CN2CCC1CC2)c1cc2ccoc2cn1 ? inactive

* * *

experiment: qHTS assay for small molecule disruptors of the mitochondrial membrane potential (AID 720635)
assay-setup: HepG2 mitochondrial membrane potential, Mito-MPS dye ratio; series mostly up to 83.2 µM
Records with an inconclusive call do not appear. The source made the active and inactive calls. Calls come from the whole dose curve; as a rule, active = well fitted inhibition curve with a large enough effect in the signal ratio in the repeat runs; inconclusive = weak or mixed curves, or effect the other way; inactive = flat fitted curve, though single readings scatter; the % refers to the signal ratio.
One label from this list, please: Y = active, N = inactive

Some entries whose results are on file:
Hey, what did the test say about c1cc[c]([Hg][c]2ccccc2)cc1 ? Y

For this compound, state the assay outcome: CCN(CC)C(C)C(=O)c1ccccc1 (stereo not given) N

Answer briefly: the call reported for COC(=O)C1=CCCN(C)C1 in this assay. N

Others:
# outcome recorded in this test, key = OCCBr N

Identify the outcome logged in this assay for the compound shown: CNC(=O)N(C)c1nc2ccccc2s1 N

How was CC(=O)Nc1cc([As](=O)(O)O)ccc1O classified in this test? N

Entry COC(=O)C(c1ccccc1)C1CCCCN1 (stereo not given) : call = ? N

Name the outcome recorded for O=NN1CCCCC1 in the assay. N

Name the outcome recorded for BrCCCCCCBr in the assay. N

Outcome? O=C(O)c1ccc2[nH]cc(CCCCN3CC=C(c4ccccc4)CC3)c2c1 N

Could you please tell me the result logged for N#CC(O)c1ccccc1 (stereo not given) in this assay? N

Call for entry O=P(O)(Oc1ccccc1)Oc1ccccc1 : N

Check the results log: what was the call for CCC/C(=N\OCC)C1=C(O)CC(CC(C)SCC)CC1=O (stereo not given) ? N

Look up the recorded call for O=[N+]([O-])c1cccc(O)c1 in this test. Y

Record request — test call for [Cl][Sn]([Cl])([Cl])[Cl] N

Recorded test call requested for CC(N)=S N

Assay outcome for CC1(C)COP(Oc2ccccc2)OC1 : what was it? N

Field: outcome | Entry: CCCCOP(=O)(O)OCCCC N

Could you please tell me the result logged for CCC1(c2ccccc2)C(=O)N=C(O)NC1=O (stereo not given) in this assay? N

* * *

experiment: qHTS assay for identifying genotoxic compounds that show differential cytotoxicity against isogenic chicken DT40 cell lines with known DNA damage response pathways - Rad54/Ku70 mutant cell line (AID 743015); also: nearly all actives have a fitted effect of over 60% in size; also: potency is read from the fitted curve at half-maximal effect
assay-setup: DT40 Rad54/Ku70 mutant viability, CellTiter-Glo, 40 h; series mostly up to 66.8 µM
Records with an inconclusive call do not appear. Active and inactive are the calls of the source. The call rests on the fitted dose curve; in most records, active means well fitted cell-killing curve with a large enough effect in the repeat runs; inconclusive means weak or mixed curves; inactive means no such curve, though single readings can be large or run the other way.
measurement-type: Potency

Notebook: COP(N)(=S)Oc1ccccc1C(=O)OC(C)C (centres undefined) , Potency read as inactive

Lab note: measured Potency of CCCCOC(=O)c1ccccc1C(=O)O was inactive

Recorded Potency (molecule CNC(=O)Oc1cccc(C(C)C)c1 ): inactive

Potency recorded for this molecule, CCS(=O)(=O)CCSP(=O)(OC)OC , is 48.6 µM (active)

* * *

experiment: qHTS assay for small molecule disruptors of the mitochondrial membrane potential - cell viability (AID 720634); also: nearly all actives have a fitted effect of over 20% in size
assay-setup: HepG2 viability, ATP luminescence (CellTiter-Glo), 1 h; series mostly up to 83.2 µM
Inconclusive results are not listed. Calls of active or inactive are those of the source. Calls follow the shape of the full dose curve.
The reply should name one outcome from label 1 = active, label 0 = inactive

Record excerpt, results attached:
Kindly provide the recorded test outcome for the following compound: Nc1c(Br)cc([N+](=O)[O-])cc1[N+](=O)[O-] label 1

Please state the recorded outcome for this compound: OCCBr label 0

Called result for c1cc[c]([Hg][c]2ccccc2)cc1 label 0

Lab log entry: O=C(O)c1ccc2[nH]cc(CCCCN3CC=C(c4ccccc4)CC3)c2c1 — outcome as called in the assay? label 0

Can you look up the reported call for Cc1nnc2n1-c1sc(CCC(=O)N3CCOCC3)cc1C(c1ccccc1Cl)=NC2 for me? label 0

Others:
I'd appreciate the recorded outcome for O=C1OC(c2ccc(O)c(S(=O)(=O)O)c2)(c2ccc(O)c(S(=O)(=O)O)c2)c2c(Br)c(Br)c(Br)c(Br)c21 from this test. label 0

Which outcome was assigned to CC(N)=S in this test? label 0

* * *

target-of-assay: Cytochrome P450 3A4 (Homo sapiens)
experiment: Cytochrome P450 Family 3 Subfamily A Member 4 (CYP3A4) small molecule antagonists: luciferase reporter qHTS assay (AID 1671201); also: nearly all actives have a fitted effect of over 50% in size
assay-setup: P450-Glo CYP3A4 enzyme, luciferin luminescence, 1 h; series mostly up to 115 µM
Records with an inconclusive call do not appear. Activity calls are given as the source filed them. Calls come from the whole dose curve; as a rule, active = well fitted inhibition curve with a large enough effect in the repeat runs; inconclusive = weak or mixed curves; inactive = no such curve, though single readings can be large or run the other way.
# output must be one of Yes = active, No = inactive

Outcome? N#CCCC#N No

***
Status in this test for O=[N+]([O-])c1cccc2cccnc12 ? No

Hi, do you know how CC(=O)CC(c1ccc(Cl)cc1)c1c(O)c2ccccc2oc1=O (stereo unspecified) came out in this test? No

For this compound, state the assay outcome: Cc1cc(C)nc(Nc2ccccc2)n1 No

I'd appreciate the recorded outcome for COC(=O)c1ccccc1S(=O)(=O)NC(=O)N(C)c1nc(C)nc(OC)n1 from this test. No

Can you look up the reported call for [O]=[Cd] for me? No

Please state the recorded outcome for this compound: CCC(=O)c1ccccc1 No

State the result this test recorded for CCCSP(=S)(OCC)Oc1ccc(Cl)cc1Cl (stereo unspecified) . Yes

Any idea what this test logged for OC(c1ccccc1)(c1ccccc1)C1CCNCC1 ? No

Hi, do you know how NC(=O)O came out in this test? No

Hi, do you know how Nc1c(Br)cc([N+](=O)[O-])cc1[N+](=O)[O-] came out in this test? No

Answer briefly: the call reported for CNC(=O)Oc1ccc(N(C)C)c(C)c1 in this assay. No

Just curious, what result did CCOC(=O)N(C)C(=O)CSP(=S)(OCC)OCC get here? Yes

Test call for this compound, please: ClC(Cl)(Cl)C(Cl)(Cl)Cl No

Any idea what this test logged for ClCCCN1CCN(c2cccc(Cl)c2)CC1 ? No

For CC1(C)CON(Cc2ccccc2Cl)C1=O , what call appears in the results of this test? No

* * *

target-of-assay: Acetylcholinesterase (Homo sapiens)
experiment: Acetylcholinesterase (AChE) small molecule antagonists: fluorescence cell-based qHTS assay (AID 1347398); also: nearly all actives have a fitted effect of over 50% in size
assay-setup: SH-SY5Y cells; AChE activity; series mostly up to 115 µM
Inconclusive results are not listed. The source made the active and inactive calls. The call rests on the fitted dose curve.
Respond using exactly one of the listed classes: TRUE (active), FALSE (inactive)

As a guide, the following entries are already answered.
Write down the call the test reported for this compound. Item: CC(C)(C)C(=O)C(Oc1ccc(Cl)cc1)n1cncn1 (stereo not drawn) FALSE

Kindly provide the recorded test outcome for the following compound: CCN(CC)C(=O)[C@@H]1C=C2c3cccc4[nH]cc(c34)C[C@H]2N(C)C1 TRUE

Consider now this further compound.
What classification did O=[N+]([O-])c1cccc(O)c1 end up with in this test? FALSE

* * *

experiment: qHTS assay to identify small molecule agonists of the progesterone receptor (PR) signaling pathway - cell viability counter screen (AID 1346799); also: % is scaled to controls: 0 for no effect and ±100 for the full control effect; nearly all actives have a fitted effect of over 45% in size
assay-setup: PR-UAS-bla HEK293T viability, CellTiter-Glo luminescence, 16 h; series mostly up to 92.4 µM
Inconclusive results are not listed. Activity calls are given as the source filed them. The call rests on the fitted dose curve.
measurement-type: activity change, negative = cytotoxicity

Below, 5 compounds whose answers are already recorded.
The compound O=NN1CCCCC1 showed activity change, negative = cytotoxicity equal to inactive

Note to self: activity change, negative = cytotoxicity recorded for O=C(O)c1ccc2[nH]cc(CCCCN3CC=C(c4ccccc4)CC3)c2c1 was inactive

Reported activity change, negative = cytotoxicity for COP(N)(=S)Oc1ccccc1C(=O)OC(C)C (stereo unspecified) was inactive

Nc1cc2c3c(c1)C(c1ccccc1)=N[C@@H](NC(=O)c1cccnc1)C(=O)N3CC2 has a reported activity change, negative = cytotoxicity of inactive

Reported activity change, negative = cytotoxicity for CC(=O)CC(c1ccc(Cl)cc1)c1c(O)c2ccccc2oc1=O (stereo unspecified) was inactive

Below are 6 compounds. Give each one its activity change, negative = cytotoxicity.
1. Oc1c(Cl)cccc1Cl
2. CNCC(=O)c1ccc(O)c(O)c1
3. CCCCP(CCCC)CCCC
4. CCC1(c2ccccc2)C(=O)NC(=O)NC1=O
5. c1coc(-c2nc3ccccc3[nH]2)c1
6. CCCCOC(=O)c1ccccc1N

inactive
inactive
inactive
inactive
inactive
inactive
